Target: HLA-DR DRB1*1501 (human)
Assay: radiolabeled-peptide inhibition, purified HLA-DR
Conditions: remark: other sources report otherwise
measured_parameter: pIC50
Hey, just a heads up that pIC50 is the negative log base 10 of the concentration in molar.

Input SLTLQGLGISWLGLR [9019.0055] , output reported pIC50.
7.30
